Measured values drawn from ChEMBL document CHEMBL4340563 for this set.

studySystem: Dual specificity protein phosphatase 1 (Homo sapiens)
assayName: Inhibition of His-tagged DUSP1 catalytic domain (152 to 323 residues) (unknown origin) using DiFMUP as substrate assessed as residual enzyme activity at 20 uM incubated for 30 mins by spectrofluorometric analysis relative to control
reportedProperty: Activity (%)

In the examples that follow, each entry is paired with its recorded Activity.
COc1ccc(C(=O)NC(=S)Nc2cccc(-c3nc4ccccc4o3)c2)cc1 :: 53
CCc1ccc(C(=O)NC(=S)Nc2cccc(-c3nc4cc(C)ccc4o3)c2)cc1 :: 47
O=C(NC(=S)Nc1cccc(-c2nc3cc(Cl)ccc3o2)c1)c1ccc(Br)cc1 :: 3
Cc1ccc2oc(-c3cc(NC(=S)NC(=O)c4ccc(C(C)(C)C)cc4)ccc3Cl)nc2c1 :: 88

a = CCc1ccc(C(=O)NC(=S)Nc2ccc(Cl)c(-c3nc4cc(C)ccc4o3)c2)cc1
b = Cc1ccc(C(=O)NC(=S)Nc2ccc(Cl)c(-c3nc4cc(C)ccc4o3)c2)cc1
c = Cc1ccc2oc(-c3cccc(NC(=S)NC(=O)c4ccc(Br)cc4)c3)nc2c1
d = O=C(NC(=S)Nc1cccc(-c2nc3ccccc3o2)c1)c1ccccc1
Let's sort these by Activity, smallest first. Go ahead? Answer format: the labels, ordered as requested.
c, d, b, a
(c: 10%, d: 21%, b: 33%, a: 52%)

A = Cc1ccc2oc(-c3cccc(NC(=S)NC(=O)c4ccccc4)c3)nc2c1
B = O=C(NC(=S)Nc1cccc(-c2nc3ccccc3o2)c1)c1ccc(Br)cc1
// which entry reports the smaller Activity, A or B ? Give the chosen item's label as your response.
B

====

studySystem: UniProt:P51452
Sequence (P51452 whole entry, looked up): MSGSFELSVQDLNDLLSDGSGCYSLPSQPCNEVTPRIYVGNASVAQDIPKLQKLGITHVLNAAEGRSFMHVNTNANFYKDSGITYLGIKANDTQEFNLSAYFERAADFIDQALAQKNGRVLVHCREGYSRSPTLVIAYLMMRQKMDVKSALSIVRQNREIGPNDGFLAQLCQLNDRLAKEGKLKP
assayName: Inhibition of VHR (unknown origin) assessed as residual enzyme activity at 20 uM relative to control
reportedProperty: Activity (%)

In the examples that follow, each entry is paired with its recorded Activity.
Cc1ccc2oc(-c3cccc(NC(=S)NC(=O)c4ccc(C(C)(C)C)cc4)c3)nc2c1 :: 80
COc1ccc(C(=O)NC(=S)Nc2cccc(-c3nc4ccccc4o3)c2)cc1 :: 48
O=C(NC(=S)Nc1cccc(-c2nc3cc(Cl)ccc3o2)c1)c1ccccc1F :: 37
Cc1ccc(C(=O)NC(=S)Nc2cccc(-c3nc4cc(C)ccc4o3)c2)cc1 :: 16
CCc1ccc(C(=O)NC(=S)Nc2cccc(-c3nc4cc(C)ccc4o3)c2)cc1 :: 50
Cc1ccc(C(=O)NC(=S)Nc2ccc(Cl)c(-c3nc4cc(C)ccc4o3)c2)cc1 :: 19
CCc1ccc(C(=O)NC(=S)Nc2ccc(Cl)c(-c3nc4cc(C)ccc4o3)c2)cc1 :: 63

I = Cc1ccc2oc(-c3cc(NC(=S)NC(=O)c4ccc(C(C)(C)C)cc4)ccc3Cl)nc2c1
II = Cc1ccc2oc(-c3cc(NC(=S)NC(=O)c4ccccc4)ccc3Cl)nc2c1
III = O=C(NC(=S)Nc1cccc(-c2nc3ccccc3o2)c1)c1ccc(Br)cc1
Put the entries in order of Activity, starting with the largest number. Answer format: the labels, ordered as requested.
I, II, III
(I: 82%, II: 44%, III: 11%)

====

studySystem: Dual specificity protein phosphatase 1 (Homo sapiens, UniProt P28562)
Sequence (P28562 whole entry, the tested form may be a part): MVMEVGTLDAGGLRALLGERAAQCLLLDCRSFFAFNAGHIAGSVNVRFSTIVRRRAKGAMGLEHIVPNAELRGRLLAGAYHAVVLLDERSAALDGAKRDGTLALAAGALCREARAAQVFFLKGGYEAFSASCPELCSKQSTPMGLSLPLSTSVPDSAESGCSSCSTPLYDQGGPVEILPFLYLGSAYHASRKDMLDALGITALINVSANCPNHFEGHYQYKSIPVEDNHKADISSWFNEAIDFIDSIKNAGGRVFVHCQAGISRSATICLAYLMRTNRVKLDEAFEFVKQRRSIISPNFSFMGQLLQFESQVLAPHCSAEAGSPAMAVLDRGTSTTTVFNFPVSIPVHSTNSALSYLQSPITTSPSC
assayName: Inhibition of His-tagged DUSP1 catalytic domain (152 to 323 residues) (unknown origin) using DiFMUP as substrate incubated for 30 mins by spectrofluorometric analysis
experimentalContext: read-out: IC50
pIC50: −log10 of the molar value.
reportedProperty: pIC50

CCc1ccc(C(=O)NC(=S)Nc2ccc(Cl)c(-c3nc4cc(C)ccc4o3)c2)cc1 :: 4.57
Cc1ccc(C(=O)NC(=S)Nc2cccc(-c3nc4cc(C)ccc4o3)c2)cc1 :: 5.18

A = COc1ccc(C(=O)NC(=S)Nc2cccc(-c3nc4cc(C)ccc4o3)c2)cc1
B = O=C(NC(=S)Nc1cccc(-c2nc3ccccc3o2)c1)c1ccc(Br)cc1
C = Cc1ccc(C(=O)NC(=S)Nc2cccc(-c3nc4ccccc4o3)c2)cc1
D = COc1ccc(C(=O)NC(=S)Nc2cccc(-c3nc4ccccc4o3)c2)cc1
Let's sort these by pIC50, smallest first. Go ahead? Answer format: the labels, ordered as requested.
C, D, A, B
(C: 4.46, D: 4.72, A: 4.96, B: 5.32)
